Where do these numbers come from? They come from paper PMC10247784.

# RLU, fluorescence trace per record follows
Molecular target: human TAS2R4 (Homo sapiens, UniProt Q9NYW5)
Construct: expressed in transfected cells; host or cells: HEK293T-Gα16gust44
Sequence (Q9NYW5 whole entry): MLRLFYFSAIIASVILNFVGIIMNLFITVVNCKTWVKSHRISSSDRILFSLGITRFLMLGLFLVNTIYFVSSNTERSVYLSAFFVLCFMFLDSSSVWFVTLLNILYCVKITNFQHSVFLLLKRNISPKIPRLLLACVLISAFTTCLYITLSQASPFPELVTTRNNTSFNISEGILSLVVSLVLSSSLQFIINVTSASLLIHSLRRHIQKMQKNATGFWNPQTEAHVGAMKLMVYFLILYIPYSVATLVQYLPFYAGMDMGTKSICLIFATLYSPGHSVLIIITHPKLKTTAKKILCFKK
Experiment: Calcium imaging assay (FLIPR), HEK293T-Gα16gust44 cells transfected with human TAS2R4; note: test concentration or dose not given here
Assay type: cell-based
Conditions: Time (s) 52.781 (TCA, TLCA: 52.782)
Protocol: This set of bile acids was chosen because of their commercial availability in high purities, their diversity within the class of bile acids and their previous detection and quantitation in human blood. Stock solutions were prepared in DMSO. […] Measured data were negative control corrected by subtracting the signal of the mock-transfected cells and exported to Microsoft Excel using the FLIPR software ScreenWorks 4.2. […]

{"MOLECULE": "C[C@H](CCC(=O)NCCS(=O)(=O)O)[C@H]1CC[C@H]2[C@@H]3[C@H](O)C[C@@H]4C[C@H](O)CC[C@]4(C)[C@H]3C[C@H](O)[C@]12C [Taurocholic Acid, taurocholic acid]", "MEASUREMENT TARGET": "human TAS2R4 (Homo sapiens, UniProt Q9NYW5)", "RLU, fluorescence trace": "553.791 RLU"}
{"MOLECULE": "C[C@H](CCC(=O)NCC(=O)O)[C@H]1CC[C@H]2[C@@H]3[C@H](O)C[C@@H]4C[C@H](O)CC[C@]4(C)[C@H]3C[C@H](O)[C@]12C [Glycocholic Acid, glycocholic acid]", "MEASUREMENT TARGET": "human TAS2R4 (Homo sapiens, UniProt Q9NYW5)", "RLU, fluorescence trace": "904.624 RLU"}
{"MOLECULE": "C[C@H](CCC(=O)NCCS(=O)(=O)O)[C@H]1CC[C@H]2[C@@H]3CC[C@@H]4C[C@H](O)CC[C@]4(C)[C@H]3CC[C@]12C [Taurolithocholic Acid, taurolithocholic acid]", "MEASUREMENT TARGET": "human TAS2R4 (Homo sapiens, UniProt Q9NYW5)", "RLU, fluorescence trace": "256.995 RLU"}

====

molecular target: mouse Tas2r108 (Mus musculus, UniProt Q9JKT3); construct: expressed in transfected cells; host or cells: HEK293T-Gα16gust44; assay: Calcium imaging assay (FLIPR), HEK293T-Gα16gust44 cells transfected with mouse Tas2r108; assay type: cell-based; settings: Time 143.562 s
REPORTED PROPERTY: RLU (RLU)

{"SMILES CODE": "C[C@H](CCC(=O)O)[C@H]1CC[C@H]2[C@@H]3[C@H](O)C[C@@H]4C[C@H](O)CC[C@]4(C)[C@H]3C[C@H](O)[C@]12C", "REPORTED PROPERTY": "RLU", "REPORTED MEASUREMENT": 197.377}
{"SMILES CODE": "C[C@H](CCC(=O)NCC(=O)O)[C@H]1CC[C@H]2[C@@H]3[C@H](O)C[C@@H]4C[C@H](O)CC[C@]4(C)[C@H]3C[C@H](O)[C@]12C", "REPORTED PROPERTY": "RLU", "REPORTED MEASUREMENT": 209.767}
{"SMILES CODE": "C[C@H](CCC(=O)O)[C@H]1CC[C@H]2[C@@H]3CC[C@@H]4C[C@H](O)CC[C@]4(C)[C@H]3C[C@H](O)[C@]12C", "REPORTED PROPERTY": "RLU", "REPORTED MEASUREMENT": 496.814}
{"SMILES CODE": "C[C@H](CCC(=O)NCCS(=O)(=O)O)[C@H]1CC[C@H]2[C@@H]3[C@H](O)C[C@@H]4C[C@H](O)CC[C@]4(C)[C@H]3C[C@H](O)[C@]12C", "REPORTED PROPERTY": "RLU", "REPORTED MEASUREMENT": 216.156}

====

molecular target: human TAS2R1 (Homo sapiens); construct: expressed in transfected cells; host or cells: HEK293T-Gα16gust44; assay: Calcium imaging assay (FLIPR), HEK293T-Gα16gust44 cells transfected with human TAS2R1; assay type: cell-based; settings: Time 80.796 s
Sequence (Q9NYW7 whole entry): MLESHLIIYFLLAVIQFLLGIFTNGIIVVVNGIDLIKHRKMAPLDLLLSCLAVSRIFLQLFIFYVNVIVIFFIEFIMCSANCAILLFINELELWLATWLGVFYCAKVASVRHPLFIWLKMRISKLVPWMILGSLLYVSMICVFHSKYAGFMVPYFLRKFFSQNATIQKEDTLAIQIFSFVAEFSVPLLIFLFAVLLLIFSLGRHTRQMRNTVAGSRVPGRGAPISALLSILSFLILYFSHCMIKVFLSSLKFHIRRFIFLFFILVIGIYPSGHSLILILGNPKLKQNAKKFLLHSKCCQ
REPORTED PROPERTY: RLU (RLU)

{"SMILES CODE": "C[C@H](CCC(=O)O)[C@H]1CC[C@H]2[C@@H]3CC[C@@H]4C[C@H](O)CC[C@]4(C)[C@H]3CC[C@]12C", "REPORTED MEASUREMENT": 892.644}
{"SMILES CODE": "C[C@H](CCC(=O)O)[C@H]1CC[C@H]2[C@@H]3[C@H](O)C[C@@H]4C[C@H](O)CC[C@]4(C)[C@H]3C[C@H](O)[C@]12C", "REPORTED MEASUREMENT": 695.956}
{"SMILES CODE": "C[C@H](CCC(=O)O)[C@H]1CC[C@H]2[C@@H]3[C@H](O)C[C@@H]4C[C@H](O)CC[C@]4(C)[C@H]3CC[C@]12C", "REPORTED MEASUREMENT": 833.544}
{"SMILES CODE": "C[C@H](CCC(=O)O)[C@H]1CC[C@H]2[C@@H]3[C@@H](O)C[C@@H]4C[C@H](O)CC[C@]4(C)[C@H]3CC[C@]12C", "REPORTED MEASUREMENT": 594.173}

====

Biological target: mouse Tas2r108 (Mus musculus, UniProt Q9JKT3)
Construct: expressed in transfected cells; host or cells: HEK293T-Gα16gust44
Sequence (Q9JKT3 1-297): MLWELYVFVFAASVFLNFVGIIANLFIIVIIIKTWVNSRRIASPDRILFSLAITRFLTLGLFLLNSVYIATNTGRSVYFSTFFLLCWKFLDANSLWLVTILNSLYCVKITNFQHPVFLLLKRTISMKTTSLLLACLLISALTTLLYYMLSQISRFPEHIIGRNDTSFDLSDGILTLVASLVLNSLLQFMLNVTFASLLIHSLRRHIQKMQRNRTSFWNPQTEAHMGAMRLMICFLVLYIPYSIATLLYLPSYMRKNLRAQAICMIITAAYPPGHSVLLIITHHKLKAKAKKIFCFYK
Assay: Calcium imaging assay (FLIPR), HEK293T-Gα16gust44 cells transfected with mouse Tas2r108
Format: cell-based
Conditions: Time 227.562 s
# RLU per record follows
REPORTED PROPERTY: RLU (RLU)

{"SMILES CODE": "C[C@H](CCC(=O)O)[C@H]1CC[C@H]2[C@@H]3CC[C@@H]4C[C@H](O)CC[C@]4(C)[C@H]3C[C@H](O)[C@]12C", "REPORTED MEASUREMENT": 477.486}
{"SMILES CODE": "C[C@H](CCC(=O)O)[C@H]1CC[C@H]2[C@@H]3[C@H](O)C[C@@H]4C[C@H](O)CC[C@]4(C)[C@H]3C[C@H](O)[C@]12C", "REPORTED MEASUREMENT": 139.492}
{"SMILES CODE": "C[C@H](CCC(=O)NCC(=O)O)[C@H]1CC[C@H]2[C@@H]3[C@H](O)C[C@@H]4C[C@H](O)CC[C@]4(C)[C@H]3C[C@H](O)[C@]12C", "REPORTED MEASUREMENT": 164.71}
{"SMILES CODE": "C[C@H](CCC(=O)NCCS(=O)(=O)O)[C@H]1CC[C@H]2[C@@H]3[C@H](O)C[C@@H]4C[C@H](O)CC[C@]4(C)[C@H]3C[C@H](O)[C@]12C", "REPORTED MEASUREMENT": 259.359}

====

biological target: human TAS2R14 (Homo sapiens, UniProt Q9NYV8); construct: expressed in transfected cells; host or cells: HEK293T-Gα16gust44; assay: Calcium imaging assay (FLIPR), HEK293T-Gα16gust44 cells transfected with human TAS2R14; assay type: cell-based; conditions: TAS2R14 trace; Time (s) 317.578 (Taurocholic Acid 317.563, Chenodeoxycholic Acid 317.546)
Sequence (Q9NYV8 whole entry): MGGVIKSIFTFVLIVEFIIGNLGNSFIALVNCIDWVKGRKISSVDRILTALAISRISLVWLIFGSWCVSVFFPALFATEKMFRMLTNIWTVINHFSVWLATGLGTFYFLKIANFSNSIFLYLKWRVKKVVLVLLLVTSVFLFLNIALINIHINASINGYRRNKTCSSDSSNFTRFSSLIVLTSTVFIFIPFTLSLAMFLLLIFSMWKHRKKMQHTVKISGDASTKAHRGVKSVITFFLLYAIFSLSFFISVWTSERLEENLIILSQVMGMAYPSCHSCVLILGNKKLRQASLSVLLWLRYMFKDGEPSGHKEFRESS
REPORTED PROPERTY: RLU (RLU)

{"SMILES CODE": "C[C@H](CCC(=O)NCCS(=O)(=O)O)[C@H]1CC[C@H]2[C@@H]3CC[C@@H]4C[C@H](O)CC[C@]4(C)[C@H]3CC[C@]12C", "REPORTED MEASUREMENT": -4.053}
{"SMILES CODE": "C[C@H](CCC(=O)NCC(=O)O)[C@H]1CC[C@H]2[C@@H]3[C@H](O)C[C@@H]4C[C@H](O)CC[C@]4(C)[C@H]3C[C@H](O)[C@]12C", "REPORTED MEASUREMENT": 204.947}
{"SMILES CODE": "C[C@H](CCC(=O)O)[C@H]1CC[C@H]2[C@@H]3[C@H](O)C[C@@H]4C[C@H](O)CC[C@]4(C)[C@H]3C[C@H](O)[C@]12C", "REPORTED MEASUREMENT": 165.461}
{"SMILES CODE": "C[C@H](CCC(=O)O)[C@H]1CC[C@H]2[C@@H]3[C@H](O)C[C@@H]4C[C@H](O)CC[C@]4(C)[C@H]3CC[C@]12C", "REPORTED MEASUREMENT": 189.014}
{"SMILES CODE": "C[C@H](CCC(=O)NCCS(=O)(=O)O)[C@H]1CC[C@H]2[C@@H]3[C@H](O)C[C@@H]4C[C@H](O)CC[C@]4(C)[C@H]3C[C@H](O)[C@]12C", "REPORTED MEASUREMENT": 79.3923}
